- Tested on: SF-539 CNS
- method: NCI-60 one-dose screen, 48 h (100 = growth as untreated, 0 = no growth, -100 = all killed)
- assayContext: 10 µM
About 83,000 compounds went through this panel and 20% of them were active in at least one assay; those are over-represented in the sample as a whole.
measuredProperty: growth (%)
Expressed in %, but write only the number.

// query Test system SF-539 CNS; read-out growth; what value for OC1CCCc2ccccc21 (centres undefined) ?
// result 96.4

// query Item CC1(O)CCCCC1O (centres undefined) with SF-539 CNS - growth?
// result 97

// query # get_value(readout= growth, system= SF-539 CNS) for N#CC1(Nc2ccc3c4c(cccc24)CC3)CCCCC1
// result 108

// query Provide value of growth for this record tested with SF-539 CNS: CC1CCC2C(C)(C)C3CC12CC1OC13C (centres undefined)
// result 98.9

// query What value of growth on SF-539 CNS does O=C(Nc1cc(-c2ccccc2)[nH]n1)c1ccc(Cl)cc1 have?
// result 66.2

// query Item O=C(N/N=C/c1ccccc1O)Nc1nn[nH]n1 with SF-539 CNS - growth?
// result 96.9

// query Find growth (SF-539 CNS) for the entry COc1cccc(Sc2ccc([N+](=O)[O-])c3no[n+]([O-])c23)c1
// result 95.4

// query // fetch SF-539 CNS growth for COC(=O)/C=C\C(=O)OC
// result 103

// query Hi! What's the reported growth for CCCOC(=O)C(O)c1ccccc1 (centres undefined) on SF-539 CNS?
// result 101

// query Recorded growth for CCCCN(CCCC)CCCO with SF-539 CNS, please?
// result 101

// query Tell me reported growth for CCCCCCCCCCC(C)Br (centres undefined) , tested with SF-539 CNS.
// result 110

// query Recall the recorded growth for CC(=O)OCC1=CC2OC(=O)C3=COC(OC4OC(CO)C(O)C(O)C4O)C1C32 (centres undefined) with SF-539 CNS and state it.
// result 109

// query Lab note: need growth for O=[N+]([O-])c1ccc(Cl)c(S(=O)(=O)O)c1 on SF-539 CNS, anyone have it?
// result 97.8

// query Lab note: need growth for C1CNC(C2=NCCN2)=N1 on SF-539 CNS, anyone have it?
// result 98.5

----------
Consider the following compounds; for each one, report its growth.
- System: A549/ATCC NSCLC
- method: NCI-60 one-dose screen, 48 h (100 = growth as untreated, 0 = no growth, -100 = all killed)
- assayContext: 10 µM
This is part of a sample that, as a whole, favours compounds with a hit. Of some 83,000 tested, about 20% had one in any assay.
# value in %; strip the unit string

// query Using the record for CCOC(=O)C(O)C(O)C(=O)OCC (stereo not drawn) , report its growth.
// result 104

// query Given the entry O=C(CCl)N1CCN(C/C=C/c2ccccc2)CC1 , report its measured growth.
// result 108

// query # query: growth of entry CCOC(=O)c1ccc(NC(=S)P(=O)(c2ccccc2)c2ccccc2)cc1
// result 103

// query State the recorded growth for this entry: N#Cc1c(N)sc(=S)c2c1CCCC2
// result 105

// query Bench note: what growth did Cc1cc(N2CCC(N3CCCC3)CC2)nc(/N=C(\N)Nc2ccc(Cl)c(Cl)c2)n1 show?
// result -22.1

// query Given the entry O=c1cc(-c2ccccc2)[nH]c(=S)[nH]1 , report its measured growth.
// result 104

// query Could you share which growth value was measured for COC(=O)c1cc(-c2ccc(Cl)c(Cl)c2)[nH]c(=O)c1C#N ?
// result 101

// query For the compound O=C(Cc1nc2ccc([N+](=O)[O-])cc2nc1CC(=O)c1ccccc1)c1ccccc1 , what growth is on record?
// result 58.8

// query Could you share which growth value was measured for O=C(c1ccccc1)C1CCC1 ?
// result 71.6

// query Please look up its growth: CCOC(=O)C1=C(Nc2ccc(Br)cc2)C(=O)N(CC)C1
// result 98.8

// query I have this compound here, CC(C)C(C#N)(C(C)C)C(C)C , and I need its recorded growth.
// result 97.1

// query So what's the measured growth for this one? CSC(=N\N=C\c1ccc(N(C)C)cc1)/N=C/N(C)C
// result 103

// query Entry under review: COC(=O)c1cccnc1 . Reported growth?
// result 91.9
